B1: TPR 5TU (parent)
chain: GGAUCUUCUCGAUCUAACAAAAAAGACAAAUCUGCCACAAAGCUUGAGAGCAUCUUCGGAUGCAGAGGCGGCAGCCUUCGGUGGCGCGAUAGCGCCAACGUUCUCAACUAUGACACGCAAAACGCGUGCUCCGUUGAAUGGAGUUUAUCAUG

Variants of: B1
Test: polymerase ribozyme fitness, log enrichment relative to wild type (log ratio); higher = more active; in vitro selection for triplet polymerase activity
Variants at the floor of the assay were thinned out.
Property: polymerase ribozyme fitness (log ratio); scope: individual variants

Consider the reported polymerase ribozyme fitness (log ratio) for these variants:
Residue Change: C93G A98C G143C
Reported: -4.05
--
Residue Change: A20C A120G
Reported: -0.986
--
Residue Change: G50A A120G A122U A150U
Reported: -2.03

GET /values?readout=polymerase ribozyme fitness (log ratio)&item= A21G A22U G67A G86C C96U G117A
≤ -4.2

GET /values?readout=polymerase ribozyme fitness (log ratio)&item= A47U C76U A119C U139G
-2.8

GET /values?readout=polymerase ribozyme fitness (log ratio)&item= G25C G58A C72A G80A C87A C118G
≤ -4.2

GET /values?readout=polymerase ribozyme fitness (log ratio)&item= `A21G`
0.531

GET /values?readout=polymerase ribozyme fitness (log ratio)&item= C54G C75A
≤ -4.2

GET /values?readout=polymerase ribozyme fitness (log ratio)&item= A40U A64G C93A A98G A107C U130G
≤ -4.2

GET /values?readout=polymerase ribozyme fitness (log ratio)&item= C51U C95G C105G G117U
-3.53

GET /values?readout=polymerase ribozyme fitness (log ratio)&item= A12C C35U A49C A64U C95U C123U
≤ -4.2

Data provenance: the RNAGym collection of RNA variant scans (doi:10.1073/pnas.2313332121)
